From: PubChem BioAssay

Target: Epidermal growth factor receptor (Homo sapiens) (UniProt P00533)
Sequence (P00533 whole entry, looked up): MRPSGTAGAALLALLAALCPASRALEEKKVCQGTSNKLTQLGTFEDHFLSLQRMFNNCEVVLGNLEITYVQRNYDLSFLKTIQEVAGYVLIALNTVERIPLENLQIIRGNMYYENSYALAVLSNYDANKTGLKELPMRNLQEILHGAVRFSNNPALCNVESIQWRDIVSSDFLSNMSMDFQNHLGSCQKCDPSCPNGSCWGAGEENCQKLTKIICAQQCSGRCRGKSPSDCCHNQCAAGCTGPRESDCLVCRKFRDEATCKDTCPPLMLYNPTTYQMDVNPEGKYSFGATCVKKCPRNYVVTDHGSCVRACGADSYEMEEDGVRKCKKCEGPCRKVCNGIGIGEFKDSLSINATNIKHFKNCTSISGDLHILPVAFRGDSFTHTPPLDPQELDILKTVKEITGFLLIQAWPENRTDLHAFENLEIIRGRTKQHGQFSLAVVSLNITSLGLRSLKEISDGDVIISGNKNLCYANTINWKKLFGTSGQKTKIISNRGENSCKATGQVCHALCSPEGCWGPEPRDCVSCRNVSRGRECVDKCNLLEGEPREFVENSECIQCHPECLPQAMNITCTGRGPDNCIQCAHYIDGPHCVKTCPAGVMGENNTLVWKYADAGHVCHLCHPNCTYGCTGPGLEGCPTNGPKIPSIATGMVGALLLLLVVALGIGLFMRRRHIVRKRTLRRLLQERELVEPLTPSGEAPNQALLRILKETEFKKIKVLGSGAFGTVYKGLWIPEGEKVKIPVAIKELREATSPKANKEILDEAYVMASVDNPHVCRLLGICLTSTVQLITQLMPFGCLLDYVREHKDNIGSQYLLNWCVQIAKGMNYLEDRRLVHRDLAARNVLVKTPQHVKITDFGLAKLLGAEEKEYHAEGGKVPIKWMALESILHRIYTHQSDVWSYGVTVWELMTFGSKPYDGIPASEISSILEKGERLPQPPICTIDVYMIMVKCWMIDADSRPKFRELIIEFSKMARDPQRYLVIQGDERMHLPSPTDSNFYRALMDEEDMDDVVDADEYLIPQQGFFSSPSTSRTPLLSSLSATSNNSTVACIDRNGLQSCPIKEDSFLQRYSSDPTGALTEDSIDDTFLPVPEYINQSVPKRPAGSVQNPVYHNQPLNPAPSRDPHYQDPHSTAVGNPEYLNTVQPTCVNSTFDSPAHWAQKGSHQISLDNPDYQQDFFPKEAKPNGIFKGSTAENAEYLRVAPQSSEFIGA
Assay: compounds binding epidermal growth factor receptor – biochemical, small-molecule microarray, 635 nm fluorescence, primary screen (AID 1104);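 note: score merges 667 nm emission intensity with spot signal to noise over triplicate slides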
Conditions: EGFR binding, higher = more signal
# Lookup of reported composite z-score keyed by entry
Reply: number alone, nothing else.

Here is how some molecules turned out for composite z-score.
COC(=O)NCC=Cc1nc(CCC=CC(=O)O[C@H]2CC3CC(=O)O[C@@H](C=CCC(C)C)C[C@@H]4CC[C@H](C)[C@@H](C[C@@H](OC)C[C@H](C2)O3)O4)co1 : -0.633
CCc1cc2c(nc1CC)CCN(CCC(C)=NOC)C2 : 0.961
C[C@@H]1OC=C2[C@@H](O)[C@H]3O[C@H]3C(=O)[C@]23[C@H]1[C@H]1C2=C([C@@H](O)[C@H]4O[C@H]4C2=O)[C@@H]3O[C@@H]1C : 0.367
COC(=O)[C@@]1(Cc2ccccc2)[C@H]2c3cc(C(=O)N(C)C)n(C)c3C[C@H]2CN1C(=O)c1ccccc1 : 0.0444
COC(=O)[C@@]1(Cc2ccccc2)[C@H]2c3cc(C(=O)N(C)C)[nH]c3C[C@H]2CN1C(=O)c1ccccc1 : -0.649

Reported composite z-score for CCCc1cc2c(n1Cc1ccco1)C(C)C1CN(C(=O)c3ccccc3)C(C)(C(=O)OC)C21 (stereo not drawn) : what is it?
0.437

Repeat with COC(=O)C1(C)C=C2C(=C(C)C(=O)C2C)CN1 (stereo not drawn)
-0.885

Repeat with COC(=O)[C@H]1C(=O)c2ccccc2O[C@@](C(=O)OC)(c2ccccc2)[C@@H]1c1ccccc1
0.0442
